Assay: Plasma concentration in Swiss mouse at 30 mg/kg, po after 8 hrs
Format: ADME, organism-based
Design: dose 30 mg/kg, route oral
readout_type: concentration at 8 h (nM)

[1] COc1ccc(-c2cc(-c3ccc(C(=O)N4CCOCC4)cc3)cnc2N)cn1
[2] COc1ccc(-c2cc(-c3ccc(C(N)=O)cc3)cnc2N)cn1
[3] COc1ccc(-c2cc(-c3ccc(C(=O)N(C)C)cc3)cnc2N)cn1
[4] Nc1ncc(-c2ccc(C(=O)N3CCOCC3)cc2)cc1-c1ccc(C(F)(F)F)cc1
INPUT: rank_up(items): orders items by reported concentration at 8 h in ascending numerical order. The reply should contain the labels ordered as requested.
OUTPUT: 4, 1, 2, 3

* * *

// values below are reported solubility kinetic
Assay: Kinetic solubility of the compound in 0.01M HCl at pH 2 by nephelometry analysis
Assay type: physicochemical
Settings: read-out: Kinetic_solubility

The cases that follow already have their solubility kinetic on record.
[
  {
    "structure_smiles": "Nc1ncc(-c2ccc(C(=O)N3CCOCC3)cc2)cc1-c1ccc(C(F)(F)F)cc1",
    "measurement": "> 100 µg/mL"
  },
  {
    "structure_smiles": "COc1ccc(-c2cc(-c3ccc(S(=O)(=O)N(C)C)cc3)cnc2N)cn1",
    "measurement": "> 100 µg/mL"
  },
  {
    "structure_smiles": "COc1ccc(-c2cc(-c3ccc(C(=O)NCCN4CCOCC4)cc3)cnc2N)cn1",
    "measurement": "> 100 µg/mL"
  },
  {
    "structure_smiles": "CN1CCN(C(=O)c2ccc(-c3cnc(N)c(-c4ccc(C(F)(F)F)cc4)c3)cc2)CC1",
    "measurement": "> 100 µg/mL"
  },
  {
    "structure_smiles": "Nc1ncc(-c2ccc(C(=O)N3CCOCC3)cc2)cc1-c1ccc(C(F)(F)F)nc1",
    "measurement": "> 100 µg/mL"
  }
]

INPUT: Give a short answer stating reported solubility kinetic for COc1ccc(-c2cc(-c3ccc(S(C)(=O)=O)cc3C(F)(F)F)cnc2N)cn1 .
OUTPUT: > 100 µg/mL

INPUT: Give a short answer stating reported solubility kinetic for COc1ccc(-c2cc(-c3ccc(NS(C)(=O)=O)cc3)cnc2N)cn1 .
OUTPUT: > 100 µg/mL

INPUT: Give a short answer stating reported solubility kinetic for Nc1ncc(-c2ccc(C(=O)N3CCNCC3)cc2)cc1-c1ccc(C(F)(F)F)cc1 .
OUTPUT: > 100 µg/mL

* * *

Assay: physchem
Details: octanol/water, pH 7.4
readout_type: logD

The cases that follow already have their logD on record.
[
  {
    "structure_smiles": "COc1ccc(-c2cc(-c3ccc(C(=O)NCCN4CCCC4)cc3)cnc2N)cn1",
    "measurement": 2.5
  },
  {
    "structure_smiles": "COc1ccc(-c2cc(-c3ccc4ncccc4c3)cnc2N)cn1",
    "measurement": 2.9
  },
  {
    "structure_smiles": "Nc1ncc(-c2ccc(C(=O)N3CCNCC3)cc2)cc1-c1ccc(C(F)(F)F)nc1",
    "measurement": 2.4
  },
  {
    "structure_smiles": "COc1ccc(-c2cc(-c3ccc(OC(F)(F)F)cc3)cnc2N)cn1",
    "measurement": 4.3
  },
  {
    "structure_smiles": "COc1ccc(-c2cc(-c3ccc(S(C)(=O)=O)c(F)c3)cnc2N)cn1",
    "measurement": 2.5
  },
  {
    "structure_smiles": "COc1ccc(-c2cc(-c3ccc(-n4cncn4)cc3)cnc2N)cn1",
    "measurement": 2.4
  },
  {
    "structure_smiles": "COc1ccc(-c2cnc(N)c(-c3ccc(OC)nc3)c2)cn1",
    "measurement": 2.8
  },
  {
    "structure_smiles": "COc1ccc(-c2cc(-c3ccc(C(=O)N4CCN(C)CC4)cc3)cnc2N)cn1",
    "measurement": 2
  }
]

[1] CN1CCN(C(=O)c2ccc(-c3cnc(N)c(-c4ccc(C(F)(F)F)cc4)c3)cc2)CC1
[2] COc1ccc(-c2cc(-c3cccc(S(C)(=O)=O)c3)cnc2N)cn1
INPUT: Endpoint returns whichever of 1 and 2 has the numerically higher logD. Identify your selection by its label.
OUTPUT: 1
(1: 3.9, 2: 2.3)

Where these numbers come from: ChEMBL document CHEMBL2177020
